Assay: Systemic pharmacokinetics and total colon tissue distribution after single oral administration
Type: in vivo, mouse
Settings: male, C57BL/6, mouse, plasma; mice, oral 5 mg/kg, 1 h, compound 1 measured; read-out: Mean plasma concentration
Procedure: Studies were conducted by Sai Life Sciences (Hinjewadi, Pune, India) to investigate the systemic pharmacokinetics and total colon tissue distribution of the compound of the invention. In particular, pharmacokinetic studies were carried out in male C57BL/6 mice following a single oral administration of the compound.
Where a name gives a salt, the structure may show the parent alone.
parameter-measured: concentration at 1 h (ng/mL)
Report the value in ng/mL with no unit label.

Prompt: Please give the measured concentration at 1 h for this compound: COc1cc(Nc2cc(Oc3ccc(NC(=O)Nc4cc(C(C)(C)C)cc(NS(C)(=O)=O)c4OC)c4ccccc34)ccn2)ccc1C(=O)O [1 (sodium salt)]
Completion: 49.2
